# System: Escherichia coli BW25113
# EXPERIMENTAL PROTOCOL: plate-normalized OD600 growth (mean of duplicates) (OD600 (normalized)); higher = more growth (less inhibition)
# CONDITION CONTEXT: temperature: 37°C; 24 h; 10 µM
The full ranking holds about 1,600 compounds; the median of “plate-normalized OD600 growth (mean of duplicates)” is about 0.31, and the lowest 2% start at about 0.23. Shown is part of a subset that was picked to be rich in the lowest values.
Parameter: plate-normalized OD600 growth. Scope: all listed entries.
Answer with the value's number alone.

{"SMILES REPRESENTATION": "Cn1c(C=O)nc2cc([N+](=O)[O-])ccc21", "STUDY TARGET": "Escherichia coli BW25113", "plate-normalized OD600 growth": 0.625}
{"SMILES REPRESENTATION": "CCOc1ccc(Nc2nc(-c3ccc(CC(C)C)cc3)cs2)cc1", "STUDY TARGET": "Escherichia coli BW25113", "plate-normalized OD600 growth": 0.624}
{"SMILES REPRESENTATION": "CN(C)/C=C/c1c(C=O)c2cc([N+](=O)[O-])ccc2n1C", "STUDY TARGET": "Escherichia coli BW25113", "plate-normalized OD600 growth": 0.596}
{"SMILES REPRESENTATION": "O=C(/C=C/c1ccc(-c2ccc(F)cc2)o1)c1cccs1", "STUDY TARGET": "Escherichia coli BW25113", "plate-normalized OD600 growth": 0.617}
{"SMILES REPRESENTATION": "Brc1ccc(CN2CCN(Cc3ccc4c(c3)OCO4)CC2)s1", "STUDY TARGET": "Escherichia coli BW25113", "plate-normalized OD600 growth": 0.639}
{"SMILES REPRESENTATION": "O=Cc1ccc(-c2ccc(Cl)c(C(=O)O)c2)o1", "STUDY TARGET": "Escherichia coli BW25113", "plate-normalized OD600 growth": 0.622}
{"SMILES REPRESENTATION": "COc1ccc(-c2c(C)[nH]n3c(=O)cc(-c4ccc([N+](=O)[O-])cc4)nc23)cc1", "STUDY TARGET": "Escherichia coli BW25113", "plate-normalized OD600 growth": 0.608}
{"SMILES REPRESENTATION": "Cn1c2ccccc2c2nc3ccc([N+](=O)[O-])cc3cc21", "STUDY TARGET": "Escherichia coli BW25113", "plate-normalized OD600 growth": 0.639}
{"SMILES REPRESENTATION": "COc1ccc2nc3c(nc2c1)C(=O)c1ccccc1-3", "STUDY TARGET": "Escherichia coli BW25113", "plate-normalized OD600 growth": 0.611}
{"SMILES REPRESENTATION": "CCc1ccc(-c2csc(Nc3cccc(OC)c3)n2)cc1", "STUDY TARGET": "Escherichia coli BW25113", "plate-normalized OD600 growth": 0.604}

From here, focus on the item given below.
Ask: Endpoint output: plate-normalized OD600 growth of O=C(O)Cn1c2ccccc2c2cc([N+](=O)[O-])ccc21 . Value?
Result: 0.625
